Values were extracted from a collection of fitness landscapes (doi:10.1126/science.1257360).

B1: PhoQ; a variant is named by its letters at X, in order, P23837 (parent)
chain: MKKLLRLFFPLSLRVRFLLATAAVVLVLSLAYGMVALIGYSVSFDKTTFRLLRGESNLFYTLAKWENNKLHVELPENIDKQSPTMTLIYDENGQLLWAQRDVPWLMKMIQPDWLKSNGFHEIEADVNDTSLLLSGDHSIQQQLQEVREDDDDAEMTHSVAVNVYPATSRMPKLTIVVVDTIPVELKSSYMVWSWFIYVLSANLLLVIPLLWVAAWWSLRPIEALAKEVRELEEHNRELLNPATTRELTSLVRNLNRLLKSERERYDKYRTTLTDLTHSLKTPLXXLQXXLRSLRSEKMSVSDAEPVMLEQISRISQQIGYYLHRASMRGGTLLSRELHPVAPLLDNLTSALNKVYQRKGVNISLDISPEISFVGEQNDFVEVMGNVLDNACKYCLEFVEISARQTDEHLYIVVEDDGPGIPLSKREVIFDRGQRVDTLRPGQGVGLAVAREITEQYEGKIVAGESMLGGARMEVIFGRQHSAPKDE

# Variants of: B1
# Assay: enrichment ratio after two sorts for PhoP signalling (ratio (wild type AVST 3.29)); higher = more functional
# Recorded Conditions: with PhoP (E. coli)
The full ranking holds about 140,000 sequences; the median of “enrichment ratio after two sorts for PhoP signalling” is about 0, and the highest 2% start at about 11. The full list was thinned out, with the highest values kept by preference.
Reported enrichment ratio values for a set of variants

mutation_descriptor=VFKH result="≤ 0.25"
mutation_descriptor=IGGC result="≤ 0.25"
mutation_descriptor=HINH result="≤ 0.25"
mutation_descriptor=NIRV result="≤ 0.25"
mutation_descriptor=ASEG result="≤ 0.25"
mutation_descriptor=KKAH result="≤ 0.25"
mutation_descriptor=TEHL result=12.5
mutation_descriptor=YDLL result="≤ 0.25"

Prompt: # get_value(readout='enrichment ratio', item= MHHY )
Completion: ≤ 0.25

Prompt: # get_value(readout='enrichment ratio', item= EVNL )
Completion: ≤ 0.25

Prompt: # get_value(readout='enrichment ratio', item= PHYI )
Completion: ≤ 0.25

Prompt: # get_value(readout='enrichment ratio', item= MKLL )
Completion: 11.4

Prompt: # get_value(readout='enrichment ratio', item= ICMG )
Completion: ≤ 0.25

Prompt: # get_value(readout='enrichment ratio', item= REVQ )
Completion: ≤ 0.25

Prompt: # get_value(readout='enrichment ratio', item= YAIP )
Completion: ≤ 0.25

Prompt: # get_value(readout='enrichment ratio', item= STKH )
Completion: ≤ 0.25
